assay text: NCI Yeast Anticancer Drug Screen. Data for the mlh1 rad18 strain (AID 175)
applied conditions: S. cerevisiae mlh1 rad18 strain growth inhibition; at 50.0 µM
About 79,000 compounds went through this panel and 15% of them were active in at least one assay; those are over-represented in the sample as a whole. The source made the active and inactive calls. Rule as the data show it: active = growth inhibition above about 70%; inactive = the rest.
Return exactly one item of active, inactive

{"compound": "Cc1nc2c(c(-c3ccccc3)n1)Cc1ccccc1O2", "category label": "inactive"}
{"compound": "Cn1nnc(CCCl)n1", "category label": "inactive"}
{"compound": "CN(C)C=Nc1cc2c(cc1Br)-c1ccccc1C2=O", "category label": "inactive"}
{"compound": "CCN(CC)CC1CCCCN1 (configuration not stated)", "category label": "inactive"}
{"compound": "CC1C=CC(C)N(c2nnnn2C)N1c1nnnn1C (configuration not stated)", "category label": "inactive"}
{"compound": "O=C(O)CSc1c(Cl)c(=O)oc2ccc(Cl)cc12", "category label": "inactive"}
{"compound": "CCOC(OCC)C(=O)NNC(C)C", "category label": "inactive"}
{"compound": "O=C1NC(=S)S/C1=C\\c1c(Cl)cccc1Cl", "category label": "inactive"}
{"compound": "NC(Cc1c[nH]c2ccc(F)cc12)C(=O)O (configuration not stated)", "category label": "inactive"}
{"compound": "NC(=O)C(Cc1ccc(O)cc1)NC(=O)c1cccnc1 (configuration not stated)", "category label": "inactive"}

Hi, do you know how COC(=O)C1=CON2C3CC4CC(C3)CC(C4)C12C (configuration not stated) came out in this test? inactive

Hi, do you know how `CC12CC3CC(C)(C1)CC(N=[N+]=[N-])(C3)C2` came out in this test? inactive

Hi, do you know how `COc1ccc(SC/C(=N\NOS(=O)(=O)c2ccc(C)cc2)c2ccccc2)cc1` came out in this test? active

Hi, do you know how `Cc1cccc(C)c1Nc1n[nH]c(=S)s1` came out in this test? inactive

Hi, do you know how CC1(C)OC2COC3OC(C)(C)OC3(CO)C2O1 (configuration not stated) came out in this test? inactive

Hi, do you know how `C=C(Cl)COc1ccc(C(=O)c2ccccc2)cc1` came out in this test? inactive

Hi, do you know how `CC1=CC(C)(C)NC(=S)N1c1ccccc1O` came out in this test? inactive

Hi, do you know how `Cc1cccc(OCCCCCl)c1` came out in this test? inactive

Hi, do you know how `CCc1cc(C(=O)NN)c2ccccc2n1` came out in this test? inactive

Hi, do you know how `Cc1ccc(S(=O)(=O)/N=C2\CCN(S(=O)(=O)c3ccccc3)N2S(=O)(=O)c2ccc(C)cc2)cc1` came out in this test? inactive

Hi, do you know how `C[Si](C)(C)COC(N)=O` came out in this test? inactive

Hi, do you know how `Cc1ccccc1/C=C1/N=C(c2ccccc2)OC1=O` came out in this test? inactive

Hi, do you know how N=[N+]=CC(=O)OCC(N)C(=O)O (configuration not stated) came out in this test? active

Hi, do you know how `O=[N+]([O-])c1ccc(-c2ccccc2)c([N+](=O)[O-])c1` came out in this test? inactive

Hi, do you know how `S=C1CNC(=S)CN1` came out in this test? inactive

Hi, do you know how `CCOC(=O)c1ccc(NC(=O)c2cccc(Cl)c2)cc1` came out in this test? inactive

Hi, do you know how `COc1c2cc(C(C)(C)C)cc1CSCc1cc(C(C)(C)C)cc(c1OC)CCCCC2` came out in this test? inactive

---

assay text: NCI Yeast Anticancer Drug Screen. Data for the mlh1 rad18 strain (AID 175)
applied conditions: S. cerevisiae mlh1 rad18 strain growth inhibition; at 50.0 µM; active compounds read high
The panel holds about 79,000 compounds, 15% with a hit somewhere; the sample as a whole holds those more often. Activity calls are given as the source filed them. Rule as the data show it: active = growth inhibition above about 70%; inactive = the rest.
Field: growth inhibition. Provide a value for each of the compounds that follow.

The cases that follow already have their growth inhibition on record.
{"compound": "CCCCC(CC)CSCCOC(C)OCCSCC(CC)CCCC (stereo not drawn)", "growth inhibition": "27.9% (inactive)"}
{"compound": "CCOc1ccc(/C=C2\\N=C(c3cccc(Cl)c3)OC2=O)cc1", "growth inhibition": "13.7% (inactive)"}
{"compound": "Cc1ccc(N=Nc2ccc(C)cc2NC(=O)Nc2cc(C)ccc2C)cc1", "growth inhibition": "-10.4% (inactive)"}
{"compound": "Cc1no[n+]([O-])c1NC(=O)OCc1ccccc1", "growth inhibition": "6.9% (inactive)"}

Give growth inhibition for each of the items listed below.
1. COc1ccccc1NC(=O)C(Cc1ccccc1)NC(C)=O (stereo not drawn)
2. COC1=CCC2=C(C1)C1(C)CCCC(C)(CO)C1CC2 (stereo not drawn)
3. Cc1ccc(S(=O)(=O)N2c3ccccc3[C@H]3CCC=C[C@H]32)cc1
4. COc1ccc(N2CCN(CC(O)COc3ccc(Cl)cc3)CC2)cc1 (stereo not drawn)

1: 2.65% (inactive); 2: 58.2% (inactive); 3: -15.4% (inactive); 4: 28.5% (inactive)

Give growth inhibition for each of the items listed below.
1. Cn1c(=O)c2c(nc(Br)n2CC(=O)CF)n(C)c1=O
2. Cc1c(C)c2c(c(C)c1Cl)CC2(Cl)Cl

1. 20.4% (inactive)
2. -9.5% (inactive)

---

Field: growth inhibition. Provide a value for each of the compounds that follow.
assay text: NCI Yeast Anticancer Drug Screen. Data for the sgs1 mgt1 strain (AID 161);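 also: 0% = growth of cultures given vehicle only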
applied conditions: S. cerevisiae sgs1 mgt1 strain, at 50.0 µM, active compounds read high
Compounds without any hit were thinned out: in the full panel of roughly 79,000, 15% have a hit. Activity calls are given as the source filed them. Cut-off read from the data, not from the text of the source: active = growth inhibition above about 70%; inactive = the rest.

{"compound": "O=[N+]([O-])C[C@@]12O[C@]3(O)C4C5CC(C6C5C3C61)C42 (stereo partly drawn)", "growth inhibition": "15.3% (inactive)"}

Give growth inhibition for each of the items listed below.
1. CCOC(=O)C(C#N)C1(C(C#N)C(=O)OCC)C(=O)Nc2ccccc21 (stereo not drawn)
2. CCCCCC(O)c1ccccc1 (stereo not drawn)
3. CCOC(=O)C1=CC(C)(C(=O)OCC)Nc2c(nc(SC)n(C)c2=O)N1 (stereo not drawn)
4. Cc1ccc(S(=O)(=O)OI(O)CC(F)(F)F)cc1
5. CCOC(=O)C1CCCc2sc(N)c(C#N)c21 (stereo not drawn)
6. Clc1ccccc1-n1cccc1/C=N\N=C/c1cccn1-c1ccccc1Cl

1: 19.8% (inactive); 2: 11.2% (inactive); 3: -16.3% (inactive); 4: -2.5% (inactive); 5: 4.2% (inactive); 6: -6.1% (inactive)

---

assay text: NCI Yeast Anticancer Drug Screen. Data for the mec2-1 strain (AID 157)
applied conditions: S. cerevisiae mec2-1 strain, at 50.0 µM, active compounds read high
About 79,000 compounds went through this panel and 15% of them were active in at least one assay; those are over-represented in the sample as a whole.
reported property: growth inhibition (%)
Numbers only, in %.

The cases that follow already have their growth inhibition on record.
{"compound": "O=C1OC(c2cccc(Cl)c2)=N/C1=C\\c1ccccc1", "readout unit": "%", "growth inhibition": 2.85}
{"compound": "CCCCOC(=O)CC(C(=O)OCCCC)N1CCNCC1 (stereo not given)", "readout unit": "%", "growth inhibition": -9.95}
{"compound": "C=CC(CCCC(C=C)OC(C)=O)OC(C)=O (stereo not given)", "readout unit": "%", "growth inhibition": -4.95}

Give growth inhibition for each of the items listed below.
1. COC1OC(C(=O)O)C(O)C(O)C1O (stereo not given)
2. CC(=O)CC(=O)N1CCN(C(=O)CC(C)=O)C(C)C1 (stereo not given)
3. CCOC(=O)C(O)(C#CC(C)C)C1CCCC1 (stereo not given)
4. CC(=O)Oc1ccc(CC(C)C(C)Cc2ccc(OC(C)=O)c(OC(C)=O)c2)cc1OC(C)=O (stereo not given)
5. CCOC(=O)c1c(N)n(-c2ccccc2)c(=S)n(-c2ccccc2)c1=O
6. N#CC1C(=O)NC(=S)NC1c1ccc(Cl)c(Cl)c1 (stereo not given)
7. COC(=O)Cc1oc(=O)n(-c2ccccc2)c(=O)c1C(=O)OC

1: -21.1; 2: -58.5; 3: 13; 4: 23; 5: -24.4; 6: -16.9; 7: -3.05

Give growth inhibition for each of the items listed below.
1. Cc1ccc2c(c1)[nH]c(=S)n2C=C(C#N)C#N
2. N[C@@H]1c2c(Br)sc(N3CCOCC3)c2C(=O)[C@@H]1O
3. O=C(O)C1OC1(c1ccccc1Cl)c1ccccc1Cl (stereo not given)
4. c1ccc(CCN2CCN=C2Cc2ccccc2)cc1

[-42.4, -10.4, -13.2, 8]

Give growth inhibition for each of the items listed below.
1. CC12CCCC=C1N(C=O)c1ccccc12 (stereo not given)
2. CCCCCC/C=N\NC(N)=S
3. COC(=O)C1=C(NC(=O)Nc2ccc(OC)cc2)OC(C)(C)C1c1ccc(Cl)cc1 (stereo not given)
4. O=S(=O)(c1ccccc1)C1C2CCC(O2)C1S(=O)(=O)c1ccccc1 (stereo not given)
5. O=c1[nH]c2nc3ccccc3c(=O)n2/c1=C/c1cccs1

1. 26.3
2. 14.2
3. 41.7
4. 7.8
5. 2.2
